Below are Ki values recorded for Histone deacetylase 1 (Homo sapiens, UniProt Q13547).

                         compound_structure  measured_value
0  CN1CCC(CNC(=O)c2cccc(-c3noc(C(F)(F)F)n3)c2)(c2nc(-c3ccccc3)cs2)CC1         > 23 µM

Problem: Write down the reported Ki of "CN1CCC(CNC(=O)c2cccc(C(=O)NO)c2)(c2nc(-c3ccccc3)cs2)CC1" , test system: Histone deacetylase 1 (Homo sapiens, UniProt Q13547).
Sequence (Q13547 whole entry): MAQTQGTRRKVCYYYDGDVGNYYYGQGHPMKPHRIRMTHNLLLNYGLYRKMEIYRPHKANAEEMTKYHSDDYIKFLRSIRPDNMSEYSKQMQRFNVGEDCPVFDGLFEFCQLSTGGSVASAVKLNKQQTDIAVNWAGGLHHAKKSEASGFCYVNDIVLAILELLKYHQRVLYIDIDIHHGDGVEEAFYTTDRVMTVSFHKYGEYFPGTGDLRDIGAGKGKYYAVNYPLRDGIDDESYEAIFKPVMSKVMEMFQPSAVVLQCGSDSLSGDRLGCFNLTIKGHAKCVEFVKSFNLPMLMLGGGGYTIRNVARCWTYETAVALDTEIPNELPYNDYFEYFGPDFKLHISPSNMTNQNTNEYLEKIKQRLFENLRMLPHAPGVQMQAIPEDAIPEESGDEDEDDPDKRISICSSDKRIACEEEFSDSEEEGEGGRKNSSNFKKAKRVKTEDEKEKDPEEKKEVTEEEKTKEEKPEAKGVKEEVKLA
Solution: 11.9 µM

---

Molecular target: UniProtKB Q9UBN7
Sequence (Q9UBN7 whole entry): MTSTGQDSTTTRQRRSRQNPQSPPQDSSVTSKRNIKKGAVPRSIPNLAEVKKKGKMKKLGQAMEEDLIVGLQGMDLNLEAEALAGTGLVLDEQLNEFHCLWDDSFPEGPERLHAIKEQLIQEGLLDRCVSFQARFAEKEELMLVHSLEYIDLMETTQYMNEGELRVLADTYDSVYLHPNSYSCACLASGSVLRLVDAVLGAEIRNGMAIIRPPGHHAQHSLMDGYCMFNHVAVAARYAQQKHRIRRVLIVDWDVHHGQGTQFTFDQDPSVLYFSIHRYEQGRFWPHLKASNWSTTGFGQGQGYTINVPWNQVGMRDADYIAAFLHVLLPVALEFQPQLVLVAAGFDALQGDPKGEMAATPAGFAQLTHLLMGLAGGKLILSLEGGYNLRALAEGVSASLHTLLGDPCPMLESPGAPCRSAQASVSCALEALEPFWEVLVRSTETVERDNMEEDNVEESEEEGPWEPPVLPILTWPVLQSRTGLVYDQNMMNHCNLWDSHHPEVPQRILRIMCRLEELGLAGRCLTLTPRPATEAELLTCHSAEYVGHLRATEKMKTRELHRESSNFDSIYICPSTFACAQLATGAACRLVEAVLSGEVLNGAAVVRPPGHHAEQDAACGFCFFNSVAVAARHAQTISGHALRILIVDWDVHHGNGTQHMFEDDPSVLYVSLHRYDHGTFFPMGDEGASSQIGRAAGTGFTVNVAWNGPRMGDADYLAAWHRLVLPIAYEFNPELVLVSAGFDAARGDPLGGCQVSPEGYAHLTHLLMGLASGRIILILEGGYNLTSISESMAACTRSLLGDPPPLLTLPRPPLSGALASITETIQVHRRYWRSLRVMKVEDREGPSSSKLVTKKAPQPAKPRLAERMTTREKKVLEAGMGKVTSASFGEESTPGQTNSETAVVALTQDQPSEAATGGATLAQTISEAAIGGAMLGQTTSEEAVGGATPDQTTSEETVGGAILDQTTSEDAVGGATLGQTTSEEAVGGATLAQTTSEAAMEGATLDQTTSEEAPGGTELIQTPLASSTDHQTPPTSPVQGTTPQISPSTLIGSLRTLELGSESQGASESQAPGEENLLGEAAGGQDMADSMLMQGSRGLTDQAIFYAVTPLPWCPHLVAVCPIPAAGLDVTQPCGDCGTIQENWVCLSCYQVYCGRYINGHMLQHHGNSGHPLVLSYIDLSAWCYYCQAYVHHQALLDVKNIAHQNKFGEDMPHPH
measure: Ki

>>> print(df.to_string())
                         compound_structure  measured_value
0  CN1CCC(CNC(=O)c2cccc(-c3noc(C(F)(F)F)n3)c2)(c2nc(-c3ccccc3)cs2)CC1         2.81 µM

# context switch: different compound, same Ki
Problem: Dear colleague, I am looking for the recorded Ki of the following compound: "CN1CCC(CNC(=O)c2cccc(C(=O)NO)c2)(c2nc(-c3ccccc3)cs2)CC1"
Solution: 0.189 µM

---

Target: Histone deacetylase 5 (Homo sapiens, UniProt Q9UQL6)
Sequence (Q9UQL6 whole entry): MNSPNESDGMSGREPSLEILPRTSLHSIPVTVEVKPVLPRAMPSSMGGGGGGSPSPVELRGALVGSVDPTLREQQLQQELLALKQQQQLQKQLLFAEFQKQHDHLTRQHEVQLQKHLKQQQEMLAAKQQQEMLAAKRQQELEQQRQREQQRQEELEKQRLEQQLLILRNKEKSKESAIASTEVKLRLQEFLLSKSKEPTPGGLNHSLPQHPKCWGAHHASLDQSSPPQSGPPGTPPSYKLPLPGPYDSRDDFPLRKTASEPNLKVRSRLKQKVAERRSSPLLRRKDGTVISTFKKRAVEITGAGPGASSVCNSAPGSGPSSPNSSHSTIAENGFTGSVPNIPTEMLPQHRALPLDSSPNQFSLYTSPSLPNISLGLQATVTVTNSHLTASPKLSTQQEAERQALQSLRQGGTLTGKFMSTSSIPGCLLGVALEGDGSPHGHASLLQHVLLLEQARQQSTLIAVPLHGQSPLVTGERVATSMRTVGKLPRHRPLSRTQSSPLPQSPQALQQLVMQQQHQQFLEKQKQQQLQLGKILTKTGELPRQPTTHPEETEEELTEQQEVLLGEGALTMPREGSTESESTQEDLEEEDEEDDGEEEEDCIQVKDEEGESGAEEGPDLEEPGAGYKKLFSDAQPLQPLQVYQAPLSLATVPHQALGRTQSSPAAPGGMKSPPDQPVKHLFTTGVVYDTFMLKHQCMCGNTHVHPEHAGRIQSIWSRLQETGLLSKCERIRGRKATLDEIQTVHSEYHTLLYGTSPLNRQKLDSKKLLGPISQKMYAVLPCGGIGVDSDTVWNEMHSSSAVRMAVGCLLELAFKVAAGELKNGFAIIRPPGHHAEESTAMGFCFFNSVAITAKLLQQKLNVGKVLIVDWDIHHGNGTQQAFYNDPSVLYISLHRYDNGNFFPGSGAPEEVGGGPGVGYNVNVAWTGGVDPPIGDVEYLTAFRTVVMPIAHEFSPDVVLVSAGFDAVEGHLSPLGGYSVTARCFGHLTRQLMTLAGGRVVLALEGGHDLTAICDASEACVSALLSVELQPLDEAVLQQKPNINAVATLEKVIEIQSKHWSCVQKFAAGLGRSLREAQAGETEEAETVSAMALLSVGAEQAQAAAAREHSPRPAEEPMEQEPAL
Assay: Inhibition of HDAC5 in human HeLa nuclear extract using Boc-Lys(Ac)-AMC as substrate preincubated for 5 mins followed by substrate addition measured after 30 mins by fluorometric assay
Type: cell-free
measure: IC50

Problem: # lookup: IC50 of CN(Cc1cnc2nc(N)nc(N)c2n1)c1ccc(C(=O)NC(CCP(=O)(O)O)P(=O)(O)O)cc1 (stereo unspecified)
Solution: > 40 µM

---

Target: Polyamine deacetylase HDAC10 (Homo sapiens, UniProt Q969S8)
Sequence (Q969S8 whole entry): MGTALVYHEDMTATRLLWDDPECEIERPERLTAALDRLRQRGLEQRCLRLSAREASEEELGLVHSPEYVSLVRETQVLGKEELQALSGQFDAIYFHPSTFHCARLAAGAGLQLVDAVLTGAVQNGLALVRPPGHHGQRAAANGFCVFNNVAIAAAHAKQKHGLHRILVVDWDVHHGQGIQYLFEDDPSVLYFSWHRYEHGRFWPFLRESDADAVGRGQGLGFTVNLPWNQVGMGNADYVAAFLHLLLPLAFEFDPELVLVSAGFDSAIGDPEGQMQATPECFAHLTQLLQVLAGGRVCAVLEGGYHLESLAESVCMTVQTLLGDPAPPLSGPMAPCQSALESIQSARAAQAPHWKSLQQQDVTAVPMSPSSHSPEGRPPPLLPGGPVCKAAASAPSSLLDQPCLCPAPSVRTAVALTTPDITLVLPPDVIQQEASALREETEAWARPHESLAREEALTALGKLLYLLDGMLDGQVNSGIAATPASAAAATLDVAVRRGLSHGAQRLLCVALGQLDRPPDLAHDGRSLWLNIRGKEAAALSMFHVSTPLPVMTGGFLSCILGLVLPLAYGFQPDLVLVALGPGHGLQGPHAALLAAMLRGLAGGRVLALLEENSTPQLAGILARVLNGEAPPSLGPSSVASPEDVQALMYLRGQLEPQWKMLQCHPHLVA
measure: Ki

Problem: What reported Ki corresponds to "CN1CCC(CNC(=O)c2cccc(-c3noc(C(F)(F)F)n3)c2)(c2nc(-c3ccccc3)cs2)CC1" on Polyamine deacetylase HDAC10 (Homo sapiens, UniProt Q969S8)?
Solution: > 10 µM

Every entry's value here was drawn from ChEMBL document CHEMBL4364347.
